Data origin: the supplement of paper PMC10567573

Measured protein stability index, listed per entry.
B1: TRIM43 (parent)
chain: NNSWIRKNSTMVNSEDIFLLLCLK

Variants of: B1
Experiment: protein stability index of a GFP-peptide fusion (GPS, HEK-293T) (PSI 1-6); higher = more stable;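 further: lentivirally expressed fusions sorted by FACS into six bins by GFP to DsRed ratio, PSI derived from sequencing read proportions per bin multiplied by bin number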
Conditions: c terminus: a fixed tail appended
Form: value (number only, do not type unit).

Below, each entry is followed by its recorded protein stability index result.
L21T	2.96
S9D	3.01
N2R	2.93
L21I	3.08
N13H	3

Look at this variant and give its reported protein stability index. M11D
2.95

Look at this variant and give its reported protein stability index. S14R
2.77

Look at this variant and give its reported protein stability index. S3Q
3.18

Look at this variant and give its reported protein stability index. C22D
1.94

Look at this variant and give its reported protein stability index. L23C
1.84

Look at this variant and give its reported protein stability index. W4P
2.73

Look at this variant and give its reported protein stability index. L21G
1.83

Look at this variant and give its reported protein stability index. W4M
2.59

Look at this variant and give its reported protein stability index. S9G
2.66

Look at this variant and give its reported protein stability index. L20H
2.5
